Tested On: Mitogen-activated protein kinase 3 (Homo sapiens)
Sequence (P27361 whole entry): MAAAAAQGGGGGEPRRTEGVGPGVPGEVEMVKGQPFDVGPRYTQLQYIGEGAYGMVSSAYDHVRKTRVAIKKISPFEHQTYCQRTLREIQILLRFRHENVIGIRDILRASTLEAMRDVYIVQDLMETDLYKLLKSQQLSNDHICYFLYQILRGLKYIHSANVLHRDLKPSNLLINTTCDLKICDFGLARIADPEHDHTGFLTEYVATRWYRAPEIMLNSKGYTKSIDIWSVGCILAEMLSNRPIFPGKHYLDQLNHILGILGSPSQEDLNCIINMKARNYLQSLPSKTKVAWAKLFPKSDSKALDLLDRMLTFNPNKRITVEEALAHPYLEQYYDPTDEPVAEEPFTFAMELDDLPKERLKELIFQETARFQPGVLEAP
Experimental Protocol: Inhibition of MAPK3 (unknown origin)
Readout Kind: IC50

Problem: Given COc1ncc(F)cc1CNc1ccc(Cc2c[nH]c3ncc(C)cc23)c(F)n1 , state its recorded IC50.
Solution: > 1000 nM

----------
Tested On: G protein-coupled receptor kinase 5 (Homo sapiens, UniProt P34947)
pIC50: −log10 of the molar value.
Readout Kind: pIC50

Problem: Quick check: pIC50 of COc1ncc(F)cc1CNc1ccc(Cc2c[nH]c3ncc(C)cc23)c(F)n1 ?
Solution: < 6.00

----------
Experimental Protocol: Half-life in female rat at 1.13 mg/kg, iv administered as single dose
Format: ADME, organism-based
Particulars: in vivo
Readout Kind: half-life (h)
// return numeric value only (unit: h, not printed)

Problem: Requested read-out: half-life. Entry: COc1ncc(F)cc1CNc1ccc(Cc2c[nH]c3ncc(C)cc23)c(F)n1
Solution: 3.9

----------
Tested On: UniProtKB P05771
Sequence (P05771 whole entry): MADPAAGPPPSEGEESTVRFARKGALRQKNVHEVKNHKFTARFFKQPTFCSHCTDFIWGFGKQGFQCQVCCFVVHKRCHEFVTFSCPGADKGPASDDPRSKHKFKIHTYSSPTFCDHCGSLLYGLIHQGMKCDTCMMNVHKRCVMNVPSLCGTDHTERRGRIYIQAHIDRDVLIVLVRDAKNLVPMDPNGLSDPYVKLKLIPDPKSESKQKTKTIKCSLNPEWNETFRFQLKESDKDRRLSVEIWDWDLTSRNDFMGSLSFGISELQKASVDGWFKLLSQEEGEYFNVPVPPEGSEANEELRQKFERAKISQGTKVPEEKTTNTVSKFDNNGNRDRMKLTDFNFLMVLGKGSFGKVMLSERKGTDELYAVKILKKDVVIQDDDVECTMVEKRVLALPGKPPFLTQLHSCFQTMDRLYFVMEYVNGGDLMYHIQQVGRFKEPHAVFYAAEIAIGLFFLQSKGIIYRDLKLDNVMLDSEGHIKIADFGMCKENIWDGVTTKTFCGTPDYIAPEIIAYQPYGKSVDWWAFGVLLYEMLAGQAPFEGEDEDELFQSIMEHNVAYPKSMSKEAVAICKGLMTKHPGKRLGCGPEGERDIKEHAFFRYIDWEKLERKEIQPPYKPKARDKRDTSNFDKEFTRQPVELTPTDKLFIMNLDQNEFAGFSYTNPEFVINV
Experimental Protocol: Inhibition of PRKCB1 (unknown origin)
pIC50: −log10 of the molar value.
Readout Kind: pIC50

Problem: Any idea what pIC50 was measured for COc1ncc(F)cc1CNc1ccc(Cc2c[nH]c3ncc(C)cc23)c(F)n1 ?
Solution: < 6.00

----------
Experimental Protocol: Drug concentration in wildtype mouse plasma at 1200 ppm administered as rodent chow for 10 to 24 weeks
Type: ADME, cell-free
Particulars: po, time 10-24 weeks
Readout Kind: concentration (µM)
# value in µM; strip the unit string

Problem: concentration for COc1ncc(F)cc1CNc1ccc(Cc2c[nH]c3ncc(C)cc23)c(F)n1 ?
Solution: 17.8

----------
Tested On: Beta-adrenergic receptor kinase 1 (Homo sapiens)
Sequence (P25098 whole entry): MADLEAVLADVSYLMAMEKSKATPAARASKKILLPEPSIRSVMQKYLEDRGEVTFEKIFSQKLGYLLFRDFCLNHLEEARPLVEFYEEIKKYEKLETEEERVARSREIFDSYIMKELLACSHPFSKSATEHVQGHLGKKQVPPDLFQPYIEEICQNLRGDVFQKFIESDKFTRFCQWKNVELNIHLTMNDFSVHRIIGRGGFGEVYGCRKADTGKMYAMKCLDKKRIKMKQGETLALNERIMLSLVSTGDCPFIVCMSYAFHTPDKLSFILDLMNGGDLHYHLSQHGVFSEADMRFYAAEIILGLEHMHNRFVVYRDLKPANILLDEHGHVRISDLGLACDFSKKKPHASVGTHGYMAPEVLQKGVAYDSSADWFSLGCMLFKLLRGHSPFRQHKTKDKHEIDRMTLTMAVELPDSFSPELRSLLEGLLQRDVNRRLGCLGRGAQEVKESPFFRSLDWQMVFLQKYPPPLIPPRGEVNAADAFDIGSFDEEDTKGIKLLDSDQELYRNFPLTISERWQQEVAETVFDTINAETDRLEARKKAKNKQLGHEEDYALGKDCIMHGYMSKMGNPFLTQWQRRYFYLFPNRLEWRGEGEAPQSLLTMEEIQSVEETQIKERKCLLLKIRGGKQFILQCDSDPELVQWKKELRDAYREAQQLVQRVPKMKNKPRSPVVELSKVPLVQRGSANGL
pIC50: −log10 of the molar value.
Readout Kind: pIC50

Problem: Quick check: pIC50 on Beta-adrenergic receptor kinase 1 (Homo sapiens), item COc1ncc(F)cc1CNc1ccc(Cc2c[nH]c3ncc(C)cc23)c(F)n1 [PLX-5622] ?
Solution: < 6.00

----------
Tested On: Serine/threonine-protein kinase SIK2 (Homo sapiens, UniProt Q9H0K1)
pIC50: −log10 of the molar value.
Readout Kind: pIC50

Problem: Request - read-out pIC50 | tested on Serine/threonine-protein kinase SIK2 (Homo sapiens, UniProt Q9H0K1) | compound COc1ncc(F)cc1CNc1ccc(Cc2c[nH]c3ncc(C)cc23)c(F)n1
Solution: < 6.00

----------
Tested On: Phosphatidylinositol 3-kinase catalytic subunit type 3 (Homo sapiens, UniProt Q8NEB9)
Experimental Protocol: Inhibition of PIK3C3 (unknown origin)
pIC50: −log10 of the molar value.
Readout Kind: pIC50

Problem: pIC50 for COc1ncc(F)cc1CNc1ccc(Cc2c[nH]c3ncc(C)cc23)c(F)n1 [PLX-5622] ?
Solution: < 6.00

----------
Tested On: Serine/threonine-protein kinase Sgk2 (Homo sapiens)
Readout Kind: IC50

Problem: Given COc1ncc(F)cc1CNc1ccc(Cc2c[nH]c3ncc(C)cc23)c(F)n1 , state its recorded IC50.
Solution: > 1 µM

----------
Tested On: Protein kinase C iota type (Homo sapiens, UniProt P41743)
Sequence (P41743 whole entry): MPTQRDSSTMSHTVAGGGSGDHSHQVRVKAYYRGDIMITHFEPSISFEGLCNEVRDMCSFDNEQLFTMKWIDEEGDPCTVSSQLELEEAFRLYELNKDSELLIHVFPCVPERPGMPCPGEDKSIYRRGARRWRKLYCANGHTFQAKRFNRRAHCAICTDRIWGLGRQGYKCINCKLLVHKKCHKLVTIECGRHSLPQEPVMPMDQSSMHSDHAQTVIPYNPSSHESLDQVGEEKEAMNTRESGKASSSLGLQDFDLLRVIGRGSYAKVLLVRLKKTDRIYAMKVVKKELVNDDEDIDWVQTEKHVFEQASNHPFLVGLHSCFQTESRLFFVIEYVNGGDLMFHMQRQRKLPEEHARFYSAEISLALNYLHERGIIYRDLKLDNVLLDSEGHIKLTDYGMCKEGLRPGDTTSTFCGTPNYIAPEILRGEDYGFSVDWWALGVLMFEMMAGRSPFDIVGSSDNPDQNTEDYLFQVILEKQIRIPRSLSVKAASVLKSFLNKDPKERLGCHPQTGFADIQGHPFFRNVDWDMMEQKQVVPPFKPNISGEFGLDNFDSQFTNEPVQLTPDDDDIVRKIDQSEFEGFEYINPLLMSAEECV
Readout Kind: IC50

Problem: What measured IC50 goes with COc1ncc(F)cc1CNc1ccc(Cc2c[nH]c3ncc(C)cc23)c(F)n1 [PLX-5622] ?
Solution: > 1000 nM

----------
Tested On: Serine/threonine-protein kinase BRSK1 (Homo sapiens)
Readout Kind: IC50

Problem: Name the reported IC50 value associated with the compound COc1ncc(F)cc1CNc1ccc(Cc2c[nH]c3ncc(C)cc23)c(F)n1
Solution: > 1000 nM

----------
Experimental Protocol: Cmax in female rat at 45 mg/kg, po administered as single dose via gavage
Assay type: ADME, organism-based
Particulars: in vivo
Readout Kind: Cmax
Param answer (str): number followed by unit.

Problem: Fill in: Cmax of COc1ncc(F)cc1CNc1ccc(Cc2c[nH]c3ncc(C)cc23)c(F)n1 [PLX-5622] is ___
Solution: 15600 ng/mL

----------
Tested On: Casein kinase I isoform delta (Homo sapiens)
Experimental Protocol: Inhibition of CSNK1D (unknown origin)
pIC50: −log10 of the molar value.
Readout Kind: pIC50

Problem: Requested read-out pIC50, target or system Casein kinase I isoform delta (Homo sapiens), entry COc1ncc(F)cc1CNc1ccc(Cc2c[nH]c3ncc(C)cc23)c(F)n1 [PLX-5622]
Solution: < 6.00

----------
Tested On: MAP kinase-activated protein kinase 5 (Homo sapiens, UniProt Q8IW41)
Sequence (Q8IW41 whole entry): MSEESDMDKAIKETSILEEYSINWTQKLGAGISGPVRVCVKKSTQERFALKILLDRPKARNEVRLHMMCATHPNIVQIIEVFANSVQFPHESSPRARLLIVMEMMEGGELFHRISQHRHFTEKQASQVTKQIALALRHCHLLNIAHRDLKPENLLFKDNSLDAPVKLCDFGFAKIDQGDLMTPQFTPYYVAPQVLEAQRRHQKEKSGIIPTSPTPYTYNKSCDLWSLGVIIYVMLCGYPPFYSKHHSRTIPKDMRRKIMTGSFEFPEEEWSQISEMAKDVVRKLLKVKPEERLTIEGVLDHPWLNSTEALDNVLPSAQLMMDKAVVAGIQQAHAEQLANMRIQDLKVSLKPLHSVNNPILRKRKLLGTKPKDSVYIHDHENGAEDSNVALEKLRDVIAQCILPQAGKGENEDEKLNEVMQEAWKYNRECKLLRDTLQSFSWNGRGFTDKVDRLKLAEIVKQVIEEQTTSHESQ
Experimental Protocol: Inhibition of MAPKAPK5 (unknown origin)
pIC50: −log10 of the molar value.
Readout Kind: pIC50

Problem: Which pIC50 is listed for COc1ncc(F)cc1CNc1ccc(Cc2c[nH]c3ncc(C)cc23)c(F)n1 [PLX-5622] ?
Solution: < 6.00

----------
Tested On: Ephrin type-A receptor 1 (Homo sapiens)
Sequence (P21709 whole entry): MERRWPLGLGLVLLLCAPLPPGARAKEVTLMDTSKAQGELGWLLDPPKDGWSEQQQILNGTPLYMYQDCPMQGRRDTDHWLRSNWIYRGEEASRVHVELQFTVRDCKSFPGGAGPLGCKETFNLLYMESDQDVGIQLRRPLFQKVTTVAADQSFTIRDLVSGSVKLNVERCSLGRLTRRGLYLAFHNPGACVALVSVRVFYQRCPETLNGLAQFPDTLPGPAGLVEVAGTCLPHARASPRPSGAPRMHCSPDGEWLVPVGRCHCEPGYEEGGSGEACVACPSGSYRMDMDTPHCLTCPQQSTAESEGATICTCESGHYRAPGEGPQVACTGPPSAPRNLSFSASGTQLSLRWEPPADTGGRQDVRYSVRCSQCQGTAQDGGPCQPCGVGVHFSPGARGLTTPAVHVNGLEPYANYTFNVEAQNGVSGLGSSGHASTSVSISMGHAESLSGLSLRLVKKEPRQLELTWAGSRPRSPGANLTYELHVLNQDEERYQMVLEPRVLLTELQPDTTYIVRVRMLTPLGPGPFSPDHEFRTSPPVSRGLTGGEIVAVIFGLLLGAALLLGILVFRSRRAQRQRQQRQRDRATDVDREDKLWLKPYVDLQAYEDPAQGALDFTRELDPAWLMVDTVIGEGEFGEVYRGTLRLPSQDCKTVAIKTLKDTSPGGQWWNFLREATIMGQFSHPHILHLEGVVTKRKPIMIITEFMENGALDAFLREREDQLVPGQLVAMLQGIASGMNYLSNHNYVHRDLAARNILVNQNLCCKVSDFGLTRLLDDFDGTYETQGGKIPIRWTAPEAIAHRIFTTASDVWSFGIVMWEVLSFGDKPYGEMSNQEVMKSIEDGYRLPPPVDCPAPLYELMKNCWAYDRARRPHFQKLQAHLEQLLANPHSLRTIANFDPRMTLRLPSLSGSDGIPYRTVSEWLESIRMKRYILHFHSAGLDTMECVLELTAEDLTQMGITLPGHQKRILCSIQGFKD
pIC50: −log10 of the molar value.
Readout Kind: pIC50

Problem: Data request, read-out pIC50, for COc1ncc(F)cc1CNc1ccc(Cc2c[nH]c3ncc(C)cc23)c(F)n1
Solution: < 6.00

----------
Tested On: Ribosomal protein S6 kinase alpha-5 (Homo sapiens)
Experimental Protocol: Inhibition of RPS6KA5 (unknown origin)
Readout Kind: IC50

Problem: Returns the measured IC50 for the input compound. Input: COc1ncc(F)cc1CNc1ccc(Cc2c[nH]c3ncc(C)cc23)c(F)n1 [PLX-5622]
Solution: > 1000 nM

----------
Tested On: Tyrosine-protein kinase ABL2 (Homo sapiens, UniProt P42684)
Sequence (P42684 whole entry): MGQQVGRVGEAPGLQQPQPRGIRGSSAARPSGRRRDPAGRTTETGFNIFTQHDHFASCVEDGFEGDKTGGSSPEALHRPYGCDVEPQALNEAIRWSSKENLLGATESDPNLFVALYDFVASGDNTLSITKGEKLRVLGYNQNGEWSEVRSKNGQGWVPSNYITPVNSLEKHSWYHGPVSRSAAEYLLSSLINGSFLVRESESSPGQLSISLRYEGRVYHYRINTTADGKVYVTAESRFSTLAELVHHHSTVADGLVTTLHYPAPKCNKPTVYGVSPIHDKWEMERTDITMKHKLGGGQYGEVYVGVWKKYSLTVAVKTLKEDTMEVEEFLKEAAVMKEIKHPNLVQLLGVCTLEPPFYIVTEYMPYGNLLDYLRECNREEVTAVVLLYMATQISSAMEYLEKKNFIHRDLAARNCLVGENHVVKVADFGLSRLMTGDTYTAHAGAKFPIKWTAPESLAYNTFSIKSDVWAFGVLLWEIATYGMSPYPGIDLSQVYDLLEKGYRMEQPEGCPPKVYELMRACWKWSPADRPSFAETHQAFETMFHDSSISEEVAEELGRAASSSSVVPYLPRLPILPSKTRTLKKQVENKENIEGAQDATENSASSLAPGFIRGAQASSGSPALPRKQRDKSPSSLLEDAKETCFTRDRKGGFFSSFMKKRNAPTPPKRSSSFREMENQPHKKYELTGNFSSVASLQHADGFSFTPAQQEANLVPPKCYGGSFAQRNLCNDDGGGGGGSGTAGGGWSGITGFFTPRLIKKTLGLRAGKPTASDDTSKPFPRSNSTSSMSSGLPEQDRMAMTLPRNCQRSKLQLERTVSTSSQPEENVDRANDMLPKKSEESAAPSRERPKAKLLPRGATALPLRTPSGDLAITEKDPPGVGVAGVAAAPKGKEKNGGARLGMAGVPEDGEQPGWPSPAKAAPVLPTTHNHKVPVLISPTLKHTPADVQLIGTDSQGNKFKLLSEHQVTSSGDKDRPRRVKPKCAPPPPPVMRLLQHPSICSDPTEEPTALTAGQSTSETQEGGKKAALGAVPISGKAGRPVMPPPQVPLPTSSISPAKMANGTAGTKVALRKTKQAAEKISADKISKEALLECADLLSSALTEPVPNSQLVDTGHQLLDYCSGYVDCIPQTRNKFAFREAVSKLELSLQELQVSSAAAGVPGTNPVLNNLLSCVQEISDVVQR
pIC50: −log10 of the molar value.
Readout Kind: pIC50

Problem: Consider the molecule COc1ncc(F)cc1CNc1ccc(Cc2c[nH]c3ncc(C)cc23)c(F)n1 and give its measured pIC50.
Solution: < 6.00

----------
Tested On: Ephrin type-A receptor 5 (Homo sapiens, UniProt P54756)
Sequence (P54756 whole entry): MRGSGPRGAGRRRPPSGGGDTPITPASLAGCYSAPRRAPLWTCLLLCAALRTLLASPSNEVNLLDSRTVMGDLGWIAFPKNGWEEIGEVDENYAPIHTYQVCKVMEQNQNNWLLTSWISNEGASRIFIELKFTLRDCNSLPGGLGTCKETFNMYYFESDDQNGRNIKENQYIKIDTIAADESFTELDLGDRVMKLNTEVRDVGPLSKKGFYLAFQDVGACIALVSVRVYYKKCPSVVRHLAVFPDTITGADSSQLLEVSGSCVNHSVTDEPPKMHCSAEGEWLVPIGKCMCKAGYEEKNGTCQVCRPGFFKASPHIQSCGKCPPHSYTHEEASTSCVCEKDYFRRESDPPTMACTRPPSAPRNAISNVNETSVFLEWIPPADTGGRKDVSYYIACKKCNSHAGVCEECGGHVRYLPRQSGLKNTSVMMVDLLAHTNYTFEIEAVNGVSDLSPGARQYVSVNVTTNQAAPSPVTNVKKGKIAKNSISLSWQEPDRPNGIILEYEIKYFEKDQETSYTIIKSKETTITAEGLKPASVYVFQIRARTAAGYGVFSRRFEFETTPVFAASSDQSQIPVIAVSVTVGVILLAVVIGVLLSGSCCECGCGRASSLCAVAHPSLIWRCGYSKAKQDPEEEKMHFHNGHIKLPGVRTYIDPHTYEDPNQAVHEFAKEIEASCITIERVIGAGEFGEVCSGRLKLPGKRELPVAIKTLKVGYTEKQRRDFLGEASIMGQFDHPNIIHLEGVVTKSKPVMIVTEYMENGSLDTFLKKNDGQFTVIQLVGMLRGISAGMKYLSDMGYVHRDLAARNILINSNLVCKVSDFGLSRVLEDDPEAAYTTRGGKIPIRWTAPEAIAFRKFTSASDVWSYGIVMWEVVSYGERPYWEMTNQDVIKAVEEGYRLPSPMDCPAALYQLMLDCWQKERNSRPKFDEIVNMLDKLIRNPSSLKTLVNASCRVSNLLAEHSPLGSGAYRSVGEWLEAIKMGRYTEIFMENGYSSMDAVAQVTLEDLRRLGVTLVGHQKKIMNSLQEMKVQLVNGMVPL
Readout Kind: IC50

Problem: Requested read-out: IC50. Entry: COc1ncc(F)cc1CNc1ccc(Cc2c[nH]c3ncc(C)cc23)c(F)n1 [PLX-5622]
Solution: > 1000 nM

----------
Tested On: Tyrosine-protein kinase Lyn (Homo sapiens)
Experimental Protocol: Inhibition of LYN_B (unknown origin)
Readout Kind: IC50

Problem: Which value of IC50 has been reported for COc1ncc(F)cc1CNc1ccc(Cc2c[nH]c3ncc(C)cc23)c(F)n1 in the records?
Solution: > 1000 nM

----------
Tested On: Aurora kinase A (Homo sapiens)
Sequence (O14965 whole entry): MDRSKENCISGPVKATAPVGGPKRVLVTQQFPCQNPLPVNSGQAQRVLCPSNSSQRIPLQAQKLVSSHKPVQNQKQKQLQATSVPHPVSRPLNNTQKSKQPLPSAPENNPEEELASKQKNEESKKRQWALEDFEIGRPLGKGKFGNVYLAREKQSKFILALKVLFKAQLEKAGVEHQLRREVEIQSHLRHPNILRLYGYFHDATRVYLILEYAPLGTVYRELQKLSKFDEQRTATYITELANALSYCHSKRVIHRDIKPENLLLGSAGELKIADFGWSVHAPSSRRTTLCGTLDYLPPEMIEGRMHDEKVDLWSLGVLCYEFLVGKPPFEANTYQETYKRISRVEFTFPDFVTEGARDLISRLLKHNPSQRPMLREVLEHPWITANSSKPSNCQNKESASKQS
pIC50: −log10 of the molar value.
Readout Kind: pIC50

Problem: Aurora kinase A (Homo sapiens) / pIC50 / COc1ncc(F)cc1CNc1ccc(Cc2c[nH]c3ncc(C)cc23)c(F)n1 [PLX-5622] : value?
Solution: < 6.00
